- Measurement Target: G1 APOL1 (Homo sapiens, UniProt O14791, I384M/S342G)
- Construct: expressed in transfected cells
- Experiment Description: Acute APOL1 Thallium Assay with Inducible Stable Clones of HEK 293 Cells
- Type: cell-based
- Conditions Used: HEK 293 inducible stable clones, G1 APOL1; read-out: Thallium Assay (IC50)
- Description: Acute APOL1 Thallium Assay with Inducible Stable Clones of HEK 293 Cells Apolipoprotein L1 (APOL1) proteins form potassium-permeable cation pores in the plasma membrane. APOL1 risk variants (G1 and G2) induce greater potassium flux than G0 in HEK293 cells. […] The increase of fluorescence in the assay represents the influx of Tl+ into the cell specifically through the potassium channel (i.e. through APOL1 pores), providing a functional measurement of potassium channel/pore activity. […]
Give measured IC50 for each item. Keep answers brief.

Entry O=C(NCC(F)F)OCCc1c(-c2ccc(F)cc2)[nH]c2c(F)cc(F)cc12 , IC50 reported as < 250 nM

Looking up O=C(NCC1(O)CCS(=O)(=O)C1)OCCc1c(-c2ccc(F)cc2)[nH]c2c(F)cc(F)cc12 (stereo not shown) , I see its IC50 listed as > 1000 nM

Memo: CC(O)C(=O)NCCCc1c(-c2ccc(F)cc2)[nH]c2ccc(F)cc12 (racemic) , reported IC50: < 250 nM

Short answer for CC(C)(C#N)C(=O)NCCc1c(-c2ccc(F)cc2)[nH]c2c(F)cc(F)cc12 : IC50 was 250 to 1000 nM

Given item O=C(CCc1c(-c2ccc(F)cc2)[nH]c2ccc(F)cc12)NC(CO)CO , the value recorded as its IC50 is 250 to 1000 nM

IC50 in this record for O=C(CCc1c(-c2ccc(F)cc2)[nH]c2c(F)cc(F)cc12)N[C@H]1CCOC1=O : < 250 nM

Record O=C(NCCc1c(-c2ccc(F)cc2)[nH]c2c(F)cc(F)cc12)c1cn[nH]c1 , field IC50: > 1000 nM

// IC50 lookup, compound = CC(CNC(=O)OC(C)(C)C)NC(=O)CCc1c(-c2ccc(F)cc2)[nH]c2ccc(F)cc12 (racemic) , result: > 1000 nM

Record summary for Cc1cc(F)c2[nH]c(-c3ccc(F)cc3)c(CCC(=O)NC3(CO)CCC3)c2c1 : reported IC50 = 250 to 1000 nM

Documented IC50 of Cc1nccn1CC(=O)NCCc1c(-c2ccc(F)cc2)[nH]c2c(F)cc(F)cc12 : > 1000 nM

// IC50 lookup, compound = Cc1cc(F)c2[nH]c(-c3ccc(F)cc3)c(CCC(=O)N[C@@H](C)CO)c2c1 , result: > 1000 nM

Query O=C(O)CNC(=O)NCCc1c(-c2ccc(F)cc2)[nH]c2c(F)cc(F)cc12 yields IC50 of > 1000 nM

Kindly note the recorded IC50 for O=C(CCc1c(-c2ccc(F)cc2)[nH]c2ccc(F)cc12)N[C@H]1C[C@@H](O)C1 , which is > 1000 nM

IC50 recorded for this compound, C[C@@H]1NC(=O)N(CCc2c(-c3ccc(F)cc3)[nH]c3c(F)cc(F)cc23)C1=O , is > 1000 nM

Lab book: IC50 of CC1(O)CC(NC(=O)OCCc2c(-c3ccc(F)cc3)[nH]c3c(F)cc(F)cc23)C1 (mixture of isomers) noted as > 1000 nM

// field: IC50; key: O=C(NC1(CO)CC1)OCCc1c(-c2ccc(F)cc2)[nH]c2c(F)cc(F)cc12 ; value = < 250 nM

Sure, the documented IC50 for Cc1cccc(CNC(=O)CCc2c(-c3ccc(F)cc3)[nH]c3c(F)cc(F)cc23)n1 is > 1000 nM

Field IC50 (entry CC(C)(C)OC(=O)NC1CCN(C(=O)CCc2c(-c3ccc(F)cc3)[nH]c3ccc(F)cc23)C1 (stereo not shown) ) reads > 1000 nM

Cc1cc(NC(=O)CCc2c(-c3ccc(F)cc3)[nH]c3ccc(F)cc23)no1 has a reported IC50 of > 1000 nM

# compound O=C1CCC(C(=O)NCCc2c(-c3ccc(F)cc3)[nH]c3c(F)cc(F)cc23)CN1 (stereo not shown) ; its IC50 = > 1000 nM

IC50 measured on Cc1cc(CNC(=O)OCCc2c(-c3ccc(F)cc3)[nH]c3c(F)cc(F)cc23)on1 = > 1000 nM

Quick note, IC50 for CC(CO)(CO)NC(=O)CCc1c(-c2ccc(F)cc2)[nH]c2ccc(F)cc12 landed at 250 to 1000 nM

Entry CN(C[C@H](O)CO)C(=O)CCc1c(-c2ccc(F)cc2)[nH]c2c(F)cc(Cl)cc12 ; IC50 = > 1000 nM

Reported IC50 for CC(C)C[C@H](CO)NC(=O)CCc1c(-c2ccc(F)cc2)[nH]c2c(F)cc(F)cc12 was > 1000 nM

// field: IC50; key: O=C(CCc1c(-c2ccc(F)cc2)[nH]c2c(F)cc(F)cc12)N1CC(CO)C1 ; value = > 1000 nM

compound O=C1CCC[C@@H](C(=O)NCCc2c(-c3ccc(F)cc3)[nH]c3c(F)cc(F)cc23)N1 , IC50 observed: > 1000 nM

IC50 in this record for CC(C)(C)OC(=O)NC1CCCN(C(=O)CCc2c(-c3ccc(F)cc3)[nH]c3ccc(F)cc23)C1 (stereo not shown) : > 1000 nM

get_value(item= O=C(CCN1CCCC1=O)NCCc1c(-c2ccc(F)cc2)[nH]c2c(F)cc(F)cc12 , readout=IC50) returns > 1000 nM

Recorded IC50 (compound O=C(NCCc1c(-c2ccc(F)cc2)[nH]c2c(F)cc(F)cc12)C1COC1 ): > 1000 nM

Record O=C1N[C@H](C(=O)NCCc2c(-c3ccc(F)cc3)[nH]c3c(F)cc(F)cc23)CCO1 , field IC50: > 1000 nM

Entry O=C(NCCc1c(-c2ccc(F)cc2)[nH]c2c(F)cc(F)cc12)c1cncs1 ; IC50 = > 1000 nM

---

- Measurement Target: APOL1 G1 Protein (Homo sapiens, UniProt O14791, I384M/S342G)
- Sequence (O14791 28-398 S342G/I384M): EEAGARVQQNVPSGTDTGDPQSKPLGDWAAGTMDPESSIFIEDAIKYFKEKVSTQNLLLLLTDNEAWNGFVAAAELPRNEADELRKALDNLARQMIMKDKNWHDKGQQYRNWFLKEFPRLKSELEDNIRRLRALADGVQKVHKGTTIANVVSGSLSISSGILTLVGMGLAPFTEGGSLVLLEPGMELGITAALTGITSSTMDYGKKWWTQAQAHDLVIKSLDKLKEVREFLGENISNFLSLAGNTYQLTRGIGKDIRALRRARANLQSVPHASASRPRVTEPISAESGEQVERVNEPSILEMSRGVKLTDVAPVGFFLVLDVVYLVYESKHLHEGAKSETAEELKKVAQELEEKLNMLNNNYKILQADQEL
- Experiment Description: Trypanosoma brucei brucei Lysis Assay Using APOL1 Recombinant Protein (AlamarBlue viability)
- Conditions Used: read-out: Trypanosomal Assay (IC50)
- From the text: Trypanosoma brucei brucei is a blood stream parasite to which human, gorillas and baboon are immune due to the presence of the APOL1 protein in their HDL particles. […] Briefly, the AlamarBlue active compound, the resazurin, a blue, water soluble, non-toxic and cell permeable molecule, which can be followed by absorbance, is reduced by various metabolic pathways into resorufin, a red compound which can be followed by either absorbance or fluorescence. […]
Assay Metric: IC50

Briefly, IC50 measured for COCC(C)NC(=O)CCc1c(-c2ccc(F)cc2)[nH]c2ccc(F)cc12 (racemic) : 250 to 1000 nM

Measured IC50, O=C(CCc1c(-c2ccc(F)cc2)[nH]c2ccc(F)cc12)N[C@H](CO)C(F)(F)F : > 1000 nM

Form field IC50, entry CC(CO)NC(=O)CCc1c(-c2ccc(F)cc2)[nH]c2ccc(F)cc12 (racemic) : < 250 nM

Please fill in: IC50 reported for C[C@@H](CO)NC(=O)NCCc1c(-c2ccc(F)cc2)[nH]c2c(F)cc(F)cc12 = < 250 nM

For CC(CN)NC(=O)CCc1c(-c2ccc(F)cc2)[nH]c2ccc(F)cc12 (racemic) the compound record lists IC50 as > 1000 nM

// field: IC50; key: O=C(CCc1c(-c2ccc(F)cc2)[nH]c2ccc(F)cc12)N1CCCC1CO (centres unmarked) ; value = > 1000 nM

Quick note, IC50 for CC(C)(NC(=O)CCc1c(-c2ccc(F)cc2)[nH]c2c(F)cc(F)cc12)C(F)(F)F landed at > 1000 nM

Per the record, NC1CCN(C(=O)CCc2c(-c3ccc(F)cc3)[nH]c3ccc(F)cc23)C1 (centres unmarked) has IC50 of > 1000 nM

Where do the numbers come from? From patent US20230014907A1.
